procedure text: Relative affinity for delta and mu receptors
Threshold rule: Selectivity ratio greater than or equal to 4 is condition met; below that, condition not met.

Does O=C1/C(=C\c2ccc([N+](=O)[O-])cc2)C[C@@]2(O)C3Cc4ccc(O)c5c4C2(CCN3CC2CC2)[C@H]1O5 (stereo partly drawn) have a reported Selectivity ratio of at least 4?
condition not met

What would you report for COc1ccccc1/C=C1/C[C@@]2(O)C3Cc4ccc(O)c5c4C2(CCN3CC2CC2)[C@@H](O5)C1=O (stereo partly drawn) ?
condition met

Repeat with Cc1ccc(/C=C2/C[C@@]3(O)C4Cc5ccc(O)c6c5C3(CCN4CC3CC3)[C@@H](O6)C2=O)cc1 (stereo partly drawn)
condition not met

Alright, here's another compound for you.
In plain terms: is recorded Selectivity ratio at least 4 for O=C1/C(=C\c2ccc(-c3cccc4ccccc34)cc2)C[C@@]2(O)C3Cc4ccc(O)c5c4C2(CCN3CC2CC2)[C@H]1O5 (stereo partly drawn) ?
condition met

----------
Below is a list of entries, each paired with its recorded IC50 ratio value.
tested system: Mu-type opioid receptor (Cavia porcellus) (UniProt P97266)
Sequence (P97266 whole entry): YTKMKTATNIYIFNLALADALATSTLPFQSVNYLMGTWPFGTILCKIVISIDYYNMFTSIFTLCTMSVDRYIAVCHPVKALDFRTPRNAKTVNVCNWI
procedure text: Inhibition of morphine binding to Opioid receptor mu 1 of guinea pig ileal longitudinal muscle
Reply briefly: the number, and no unit.

Need IC50 ratio, item O=C1/C(=C\c2ccc(-c3ccc4ccccc4c3)cc2)C[C@@]2(O)C3Cc4ccc(O)c5c4C2(CCN3CC2CC2)[C@H]1O5 (some centres undefined)
3.32

Same question, O=C1/C(=C\c2ccccc2Cl)C[C@@]2(O)C3Cc4ccc(O)c5c4C2(CCN3CC2CC2)[C@H]1O5 (some centres undefined) this time
1.34

What about COc1cccc(/C=C2/C[C@@]3(O)C4Cc5ccc(O)c6c5C3(CCN4CC3CC3)[C@@H](O6)C2=O)c1 (some centres undefined) ?
6.44

---
Any idea what its IC50 ratio is? The molecule is O=C1/C(=C\c2ccccc2F)C[C@@]2(O)C3Cc4ccc(O)c5c4C2(CCN3CC2CC2)[C@H]1O5 (some centres undefined)
3.86

----------
procedure text: Relative affinity for delta and mu receptors
measured property: Selectivity ratio
The reply should be a number, written without any unit.

What value of measured Selectivity ratio is listed for O=C1/C(=C\c2ccccc2F)C[C@@]2(O)C3Cc4ccc(O)c5c4C2(CCN3CC2CC2)[C@H]1O5 (some centres undefined) ?
4.4

Please do the same for O=C1/C(=C\c2ccccc2Cl)C[C@@]2(O)C3Cc4ccc(O)c5c4C2(CCN3CC2CC2)[C@H]1O5 (some centres undefined) as well.
130

Item: O=C1/C(=C\c2cccc([N+](=O)[O-])c2)C[C@@]2(O)C3Cc4ccc(O)c5c4C2(CCN3CC2CC2)[C@H]1O5 (some centres undefined)
5.2

Attention now shifts to the item below.
Recorded Selectivity ratio of O=C1/C(=C\c2cccc(F)c2)C[C@@]2(O)C3Cc4ccc(O)c5c4C2(CCN3CC2CC2)[C@H]1O5 (some centres undefined) , please.
2.1
